- System: SF-539
- experimentalProtocol: NCI tumour cell line growth inhibition, 48 h
Calls of active or inactive are those of the source. No stated cut-off is given here; in the data, active = GI50 up to about 1.1 µM and inactive = higher.
Write down the outcome that applies. Available outcomes: active, inactive

{"compound": "N#Cc1ccc(-c2nc(C#N)c(N)o2)cc1", "targetUnderTest": "SF-539", "assignedCategory": "inactive"}

Assay outcome for O=C1C(=O)c2ccccc2C=C1[N+](=O)[O-] : what was it?
inactive

Assay outcome for COc1c2occc2cc2ccc(=O)oc12 : what was it?
inactive

###

- System: OVCAR-4
- experimentalProtocol: NCI tumour cell line growth inhibition, 48 h
The source made the active and inactive calls. No stated cut-off is given here; in the data, active = GI50 up to about 1.1 µM and inactive = higher. Where a SMILES comes first, the peptide text is derived from it. [ ]: non-standard residue; d: D form. Ac5c = NC1(C(=O)O)CCCC1
In this section, each of the compounds is paired with its reported GI50.

{"compound": "O=C(/C=C/c1ccc(O)c(O)c1)OCCc1cccc2ccccc12", "GI50": "10.7 µM (inactive)"}
{"compound": "CN(C)CCCN1c2ccc(O)cc2Sc2ccc(Cl)cc21 [7-HYDROXYCHLORPROMAZINE]", "GI50": "12.5 µM (inactive)"}
{"compound": "CCOC1(OCC)C2C=CC1C(COS(=O)(=O)c1ccc(C)cc1)C2COS(=O)(=O)c1ccc(C)cc1 (stereo not drawn)", "GI50": "20.8 µM (inactive)"}
{"compound": "CC(C)(C)C1CCC2c3c([nH]c4ccccc34)C3C(=O)N(c4cccc([N+](=O)[O-])c4)C(=O)C3C2C1 (stereo not drawn)", "GI50": "25.5 µM (inactive)"}

Would you kindly share the measured GI50 for COC(=O)C1(NC(=O)C(C)NC(=O)C(CCCCN)NC(=O)C(CC(C)C)NC(C)=O)CCCC1 (stereo not drawn) (Ac-LKA[Ac5c]-OMe; configuration not given here) ?
> 10 µM (inactive)

Would you kindly share the measured GI50 for Cc1cccc2c1c(=O)c1c(O)cc3c(c1n2C)C=CC(C)(C)O3 ?
> 100 µM (inactive)

Would you kindly share the measured GI50 for CC(=O)C1=C(C)N(c2ccccc2)C2(O)C3=C(C(=O)c4ccccc4C3=O)C(O)=CC12Cl (stereo not drawn) ?
3.08 µM (inactive)

Would you kindly share the measured GI50 for CCN1CN(c2ccccc2)C2(CCN(CC(CC3OCCO3)c3ccc(F)cc3)CC2)C1=O (stereo not drawn) ?
13.5 µM (inactive)

###

- Test system: M14
- experimentalProtocol: NCI tumour cell line growth inhibition, 48 h
Active and inactive are the calls of the source. Cut-off read from the data, not from the text of the source: active = GI50 up to about 1.1 µM and inactive = higher.
Write down the outcome that applies. Available outcomes: TRUE (active), FALSE (inactive)

{"molecule": "Clc1cccc(C2SCc3nc4ccccc4n32)c1 (configuration not stated)", "assignedCategory": "FALSE"}

Assay outcome for Cc1n[nH]c(=O)n1N1C(=O)c2ccccc2C1=O : what was it?
FALSE

Assay outcome for CC(C)Sc1nc(C#N)cc2c1CCCC2 : what was it?
FALSE

Assay outcome for O=C1CCCC1C(O)(C(F)(F)F)C(F)(F)F (configuration not stated) : what was it?
FALSE

###

- Test system: HOP-62
- experimentalProtocol: NCI tumour cell line growth inhibition, 48 h
Calls of active or inactive are those of the source. No stated cut-off is given here; in the data, active = GI50 up to about 1.1 µM and inactive = higher.
Write down the outcome that applies. Available outcomes: label 1 (active), label 0 (inactive)

{"molecule": "O=C(c1ccc([N+](=O)[O-])cc1)N1CCCC1", "assignedCategory": "label 0"}
{"molecule": "CC(=O)C1=C(C)N2C(=NC3=C(CCc4ccccc43)C2c2ccc(Cl)cc2)S1 (stereo not given)", "assignedCategory": "label 0"}
{"molecule": "C=C(C)[C@@H]1CC[C@]2(C(=O)OC)CC[C@]3(C)[C@H](CC[C@@H]4[C@@]5(C)CC[C@H](O)C(C)(C)[C@@H]5CC[C@]43C)[C@@H]12 [METHYL BETULINATE]", "assignedCategory": "label 0"}

Assay outcome for N#Cc1nc(C#N)c(N)[nH]1 : what was it?
label 0

Assay outcome for CC(C)(C)OC(=O)c1ccc(NCC2=CC(=O)C=CC2=O)cc1 : what was it?
label 0

Assay outcome for CCOc1ccccc1N1C(=O)C(=O)C(c2nc3ccccc3s2)C(=O)C1=O : what was it?
label 0

Assay outcome for O=c1ccc2ccc(O)cc2o1 : what was it?
label 0

Assay outcome for O=C(CC(O)(C(F)(F)F)C(F)(F)F)c1cccs1 : what was it?
label 0

###

- Tested on: HL-60
- experimentalProtocol: NCI tumour cell line growth inhibition, 48 h
The source made the active and inactive calls. Cut-off read from the data, not from the text of the source: active = GI50 up to about 1.1 µM and inactive = higher.
Write down the outcome that applies. Available outcomes: 1 = active, 0 = inactive

Example entries begin here.
{"molecule": "CC(C)Oc1cccc(N2C(NCCc3c[nH]c4ccccc34)=Nc3ccncc3S2(=O)=O)c1", "targetUnderTest": "HL-60", "assignedCategory": 0}
{"molecule": "COc1ccc(/C=C(\\C(=C/c2ccc(OC)cc2)[N+](=O)[O-])[N+](=O)[O-])cc1", "targetUnderTest": "HL-60", "assignedCategory": 1}
{"molecule": "COc1nc2c(nc(N)n2C2OCC(O)C(O)C2O)c(=O)n1C (stereo not given)", "targetUnderTest": "HL-60", "assignedCategory": 0}
{"molecule": "CC1=NN(C(=O)Cc2ccccc2)C(=O)/C1=C\\c1ccccc1O", "targetUnderTest": "HL-60", "assignedCategory": 0}

Assay outcome for Clc1cccc(C2SCc3nc4ccccc4n32)c1 (stereo not given) : what was it?
0

Assay outcome for Cc1cc(C)c(C2=NO[C@@H]3C(=O)N(c4ccc(Cc5ccc(N6C(=O)[C@H]7C(c8c(C)cc(C)cc8C)=NO[C@H]7C6=O)cc5)cc4)C(=O)[C@H]23)c(C)c1 : what was it?
0

Assay outcome for COc1ccc(N[S+]([O-])c2ccc(OC)cc2)cc1 (stereo not given) : what was it?
0

Assay outcome for O=C(NCCCN(CCCCN(CCCNC(=O)C(F)(F)F)CCCc1ccccc1)CCCc1ccccc1)C(F)(F)F : what was it?
0

Assay outcome for Oc1cc(-c2ccco2)nc2cc3c(cc12)OCO3 : what was it?
0

Assay outcome for CN(CCO)CCCC1COc2ccccc2O1 (stereo not given) : what was it?
0

###

- Test system: MCF7
- experimentalProtocol: NCI tumour cell line growth inhibition, 48 h
The source made the active and inactive calls. No stated cut-off is given here; in the data, active = GI50 up to about 1.1 µM and inactive = higher.
Write down the outcome that applies. Available outcomes: y (active), n (inactive)

Example entries begin here.
{"molecule": "COC(=O)C1=C(C(=O)OC)C2(C)C=CC1O2 (centres undefined)", "targetUnderTest": "MCF7", "assignedCategory": "n"}
{"molecule": "CC1(C)OC2OC(COC(=O)c3ccc(C#N)cc3)C3OC(C)(C)OC3C2O1 (centres undefined)", "targetUnderTest": "MCF7", "assignedCategory": "n"}
{"molecule": "COc1ccc(/N=C/N(C)C)c(C)c1", "targetUnderTest": "MCF7", "assignedCategory": "n"}
{"molecule": "COC1CC(C)(NC(C)=O)C2OC(c3ccccc3)OCC2O1 (centres undefined)", "targetUnderTest": "MCF7", "assignedCategory": "n"}
{"molecule": "Cc1ccc(S(=O)(=O)c2ccsc2NC(=O)c2ccccc2)cc1", "targetUnderTest": "MCF7", "assignedCategory": "n"}
{"molecule": "O/N=N\\c1nc(-c2ccccn2)nc2ccccc12", "targetUnderTest": "MCF7", "assignedCategory": "n"}
{"molecule": "COc1cc2c(cc1OC)-c1cc3ccccc3c[n+]1CC2", "targetUnderTest": "MCF7", "assignedCategory": "n"}
{"molecule": "C/C(=C\\c1csc(C)n1)[C@@H]1C[C@@H]2O[C@@H]2CCC[C@H](C)[C@H](O)[C@@H](C)C(=O)C(C)(C)[C@@H](O)CC(=O)O1.C/C(=C\\c1csc(C)n1)[C@@H]1C[C@@H]2O[C@]2(C)CCC[C@H](C)[C@H](O)[C@@H](C)C(=O)C(C)(C)[C@@H](O)CC(=O)O1", "targetUnderTest": "MCF7", "assignedCategory": "y"}

Continue with the molecule presented below.
Assay outcome for CC(=O)N(C(=O)CC(=O)N/N=C\c1ccc(Br)c(N(CCC#N)CCC#N)c1)c1ccc(Cl)cc1 : what was it?
n

###

- Test system: NCI-H460
- experimentalProtocol: NCI tumour cell line growth inhibition, 48 h
Active and inactive are the calls of the source. No stated cut-off is given here; in the data, active = GI50 up to about 1.1 µM and inactive = higher.
Write down the outcome that applies. Available outcomes: active, inactive

Example entries begin here.
{"molecule": "CC(C)(C)c1cc(OCc2nnc(S)n2N)c(Cl)cc1OCc1nnc(S)n1N", "assignedCategory": "inactive"}
{"molecule": "CN(CCCNc1ccc2ncn3c4ccccc4c(=O)c1c23)CCCN1C(=O)c2cccc3cc([N+](=O)[O-])cc(c23)C1=O", "assignedCategory": "active"}
{"molecule": "O=S1(=O)OCCOS(=O)(=O)C1Cc1ccccc1", "assignedCategory": "inactive"}
{"molecule": "Cc1ccc(SC(C)/C=C/NNC2=NN=C(c3ccccc3)C(c3ccccc3)N2)cc1 (stereo unspecified)", "assignedCategory": "inactive"}

Assay outcome for O=C(O)C1(C(=O)O)CCN(S(=O)(=O)c2ccccc2)CC1 : what was it?
inactive

Assay outcome for COc1cc(/C=N/N=C2NCCCCN2)ccc1O : what was it?
inactive

Assay outcome for O=C(Nc1ccc(Br)cc1)C(=O)C(C(=O)c1ccc(Cl)c(Cl)c1)C1OC(=O)c2ccccc21 (stereo unspecified) : what was it?
inactive

Assay outcome for O=c1c2cc(Br)ccc2oc2ccc(Br)cc12 : what was it?
inactive
